// data source = the supplement of paper PMC3334620

Please go through the items and note down their PBM E-score.
Target: Stb4 (UniProt P50104)
Sequence (P50104 whole entry): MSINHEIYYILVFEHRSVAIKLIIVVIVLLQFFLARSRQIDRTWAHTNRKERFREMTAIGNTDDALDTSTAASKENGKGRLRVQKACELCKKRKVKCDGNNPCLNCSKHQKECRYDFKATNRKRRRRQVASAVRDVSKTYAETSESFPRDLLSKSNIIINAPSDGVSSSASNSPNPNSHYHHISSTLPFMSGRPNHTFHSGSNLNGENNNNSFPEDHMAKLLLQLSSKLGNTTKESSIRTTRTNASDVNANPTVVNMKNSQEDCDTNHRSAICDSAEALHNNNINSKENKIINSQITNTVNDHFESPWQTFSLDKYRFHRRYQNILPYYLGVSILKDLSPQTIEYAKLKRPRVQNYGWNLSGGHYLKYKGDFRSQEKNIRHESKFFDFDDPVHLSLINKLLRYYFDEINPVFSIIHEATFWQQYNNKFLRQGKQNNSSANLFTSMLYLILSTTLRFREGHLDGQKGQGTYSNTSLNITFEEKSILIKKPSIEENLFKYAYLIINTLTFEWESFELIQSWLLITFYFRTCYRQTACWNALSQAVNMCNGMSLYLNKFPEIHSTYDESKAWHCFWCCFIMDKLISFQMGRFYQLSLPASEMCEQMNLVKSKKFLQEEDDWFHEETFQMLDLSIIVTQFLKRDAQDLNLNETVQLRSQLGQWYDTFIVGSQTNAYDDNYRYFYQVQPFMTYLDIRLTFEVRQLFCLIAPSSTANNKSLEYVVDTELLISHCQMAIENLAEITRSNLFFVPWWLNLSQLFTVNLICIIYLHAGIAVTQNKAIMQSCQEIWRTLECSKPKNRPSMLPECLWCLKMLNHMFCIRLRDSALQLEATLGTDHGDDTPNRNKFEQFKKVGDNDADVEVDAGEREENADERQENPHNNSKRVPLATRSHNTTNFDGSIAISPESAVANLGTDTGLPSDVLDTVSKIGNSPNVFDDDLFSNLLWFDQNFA
Experiment: PBM E-score (8-mer binding enrichment) (E-score (-0.5 to 0.5)); higher = stronger / more preferred TF binding
Conditions: protein concentration: 200 nM; construct: GST-DNA-binding domain
Over roughly 33,000 sequences, “E-score (-0.5 to 0.5)” has its median near -0.056; the highest 2% begin near 0.38. What follows is part of a selection rich in the highest values, with near analogues and random picks from the rest.
Please reply with the number alone, leaving off any unit.

Task: Provide value of PBM E-score for this record tested with Stb4 (UniProt P50104): `CTACCCAA`
Result: -0.209

Task: What reported PBM E-score corresponds to `ATACCCGG` on Stb4 (UniProt P50104)?
Result: 0.391

Task: So what PBM E-score did `AACATCGT` get with Stb4 (UniProt P50104)?
Result: -0.0992

Task: Lab request: please report PBM E-score under test system Stb4 (UniProt P50104) for `CCCCGAAA`
Result: 0.34

Task: // map `GTACCCTA` to recorded PBM E-score (system: Stb4 (UniProt P50104))
Result: -0.206

Task: Item `CGCATCCA` with Stb4 (UniProt P50104) - PBM E-score?
Result: -0.126

Task: Tell me reported PBM E-score for `ATCGCATG` , tested with Stb4 (UniProt P50104).
Result: -0.117

Task: Request: PBM E-score, test system Stb4 (UniProt P50104), entry `GCGTCTGA`
Result: -0.15

Task: API: value(readout=PBM E-score, system=Stb4 (UniProt P50104)) for record `GTACCCGA`
Result: 0.437

Task: Could you share what PBM E-score was measured for `AAGCCTAA` , tested on Stb4 (UniProt P50104)?
Result: -0.0457

Task: Param readout= PBM E-score; system= Stb4 (UniProt P50104); entry= `GCCCGAAA` ; returns value.
Result: 0.276

Task: Request body: readout PBM E-score, system Stb4 (UniProt P50104), query `AAGCTAGG` . Return the value.
Result: 0.0266

Task: # get_value(readout= PBM E-score, system= Stb4 (UniProt P50104)) for `ATACCCAA`
Result: -0.0395
